Test system: LXRa:RXRa (NR concentration 270 nM, RXRa partner concentration 90 nM)
Test: PBM binding z-score (relative to random genomic background probes); higher = stronger binding; sequences stand for … in GC…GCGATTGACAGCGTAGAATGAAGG
Lab note: anything with PBM binding z-score at or over 4 counts as T; the rest go in F.

Hello, I need to know if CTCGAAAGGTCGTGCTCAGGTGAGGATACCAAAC has measured PBM binding z-score not below 4. Thanks!
F

Hello, I need to know if AGAGACAGGTGATGAAGGTAACTCAGGCTATCAT has measured PBM binding z-score not below 4. Thanks!
F

====

Tested on: PPARg:RXRa 30nM:10nM, anti-RXR (NR concentration 30 nM, RXRa partner concentration 10 nM)
Experiment: PBM binding z-score (relative to random genomic background probes); higher = stronger binding; sequences stand for … in GC…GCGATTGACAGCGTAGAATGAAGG
Lab note: anything with PBM binding z-score at or over -0.03 counts as Satisfied; the rest go in Not satisfied.

// below: answered sequences
CAAACTAGGTCACGAAAGGTAAAAGTCGAATGAC; Satisfied
ATCTCTAGGTAAAGTTTAGTGAAAGATCGATAGA; Satisfied
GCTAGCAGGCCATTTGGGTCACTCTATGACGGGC; Not satisfied
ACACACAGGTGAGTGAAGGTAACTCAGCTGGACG; Satisfied
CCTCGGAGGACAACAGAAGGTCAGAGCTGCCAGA; Not satisfied

Hello, I need to know if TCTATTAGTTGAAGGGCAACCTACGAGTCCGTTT has measured PBM binding z-score not below -0.03. Thanks!
Satisfied

====

Tested on: PPARg:RXRa DBDmut IVT, anti-RXR (DBD mutation: RXRa K156A/R161A, NR concentration 270 nM, RXRa partner concentration 90 nM)
Test: PBM binding z-score (relative to random genomic background probes); higher = stronger binding; sequences stand for … in GC…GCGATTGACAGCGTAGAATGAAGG
Lab note: anything with PBM binding z-score at or over 0.7 counts as satisfied; the rest go in not satisfied.

// below: answered sequences
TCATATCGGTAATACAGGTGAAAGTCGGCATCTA; satisfied
ACGGACAGGTGATGAAGGTAACTCAGGCTATCAT; not satisfied
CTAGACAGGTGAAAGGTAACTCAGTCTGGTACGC; satisfied
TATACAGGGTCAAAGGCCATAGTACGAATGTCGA; satisfied
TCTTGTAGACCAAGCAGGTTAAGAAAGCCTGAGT; satisfied

Hello, I need to know if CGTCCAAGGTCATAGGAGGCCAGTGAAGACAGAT has measured PBM binding z-score not below 0.7. Thanks!
satisfied

Hello, I need to know if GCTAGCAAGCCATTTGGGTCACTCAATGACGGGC has measured PBM binding z-score not below 0.7. Thanks!
not satisfied

Hello, I need to know if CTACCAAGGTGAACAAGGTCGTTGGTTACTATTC has measured PBM binding z-score not below 0.7. Thanks!
satisfied

Hello, I need to know if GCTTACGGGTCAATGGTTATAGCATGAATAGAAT has measured PBM binding z-score not below 0.7. Thanks!
satisfied

Hello, I need to know if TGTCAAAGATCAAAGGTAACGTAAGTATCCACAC has measured PBM binding z-score not below 0.7. Thanks!
not satisfied

Hello, I need to know if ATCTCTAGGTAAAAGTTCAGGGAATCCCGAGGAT has measured PBM binding z-score not below 0.7. Thanks!
satisfied

====

System: RARb:RXRa (NR concentration 270 nM, RXRa partner concentration 90 nM)
Test: PBM binding z-score (relative to random genomic background probes); higher = stronger binding; sequences stand for … in GC…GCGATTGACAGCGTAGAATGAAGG
Lab note: anything with PBM binding z-score at or over 0.7 counts as 1 (yes); the rest go in 0 (no).

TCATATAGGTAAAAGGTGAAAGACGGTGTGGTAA; 1 (yes)
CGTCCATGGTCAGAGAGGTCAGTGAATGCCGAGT; 1 (yes)
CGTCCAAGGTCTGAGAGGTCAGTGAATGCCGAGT; 1 (yes)
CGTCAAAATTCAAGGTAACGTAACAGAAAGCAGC; 0 (no)

Note: attention shifts to another entry.
Hello, I need to know if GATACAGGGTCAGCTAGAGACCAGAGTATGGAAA has measured PBM binding z-score not below 0.7. Thanks!
1 (yes)

====

System: LXRb:RXRa (NR concentration 270 nM, RXRa partner concentration 90 nM)
Test: PBM binding z-score (relative to random genomic background probes); higher = stronger binding; sequences stand for … in GC…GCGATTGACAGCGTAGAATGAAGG
measurement_type: PBM binding z-score
Provide a numeric answer; units are not to be included.

Answered examples (5):
TCTTGTAGATCAGCAGGTTACGAAAGCTGGCCAA; 0.185
CCTGCTACGTCAATGGTCAGCTAAAGCAGCTCGC; -0.531
AGAACGAGGGCACGCTGAGTTAATAGCAGAGTAG; 0.378
AGAACGAGGGCAATGAGTTGATAGCTCGGGTGGC; -0.286
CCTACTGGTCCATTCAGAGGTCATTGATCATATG; 3.9

Reported PBM binding z-score for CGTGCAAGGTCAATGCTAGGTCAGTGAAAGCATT : what is it?
4.42

====

Test system: LXRa:RXRa (NR concentration 270 nM, RXRa partner concentration 90 nM)
Experiment: PBM binding z-score (relative to random genomic background probes); higher = stronger binding; sequences stand for … in GC…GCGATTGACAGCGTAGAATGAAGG
Items are presented alongside their recorded PBM binding z-score.
Provide a numeric answer; units are not to be included.

Answered examples (5):
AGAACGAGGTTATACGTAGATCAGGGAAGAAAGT; 1.47
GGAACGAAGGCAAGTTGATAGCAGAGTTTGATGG; -0.918
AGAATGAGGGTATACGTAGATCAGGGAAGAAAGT; 0.0157
CGTCCAAGGTCAAGGTCAGGGAAAGAGACTCGAA; 5.97
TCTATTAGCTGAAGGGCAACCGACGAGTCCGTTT; 0.244

Reported PBM binding z-score for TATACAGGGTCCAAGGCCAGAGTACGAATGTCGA : what is it?
0.228

Reported PBM binding z-score for CCTCGGAGGACAGAAGGTCATAGCTGTCCGCTTT : what is it?
3.44

Reported PBM binding z-score for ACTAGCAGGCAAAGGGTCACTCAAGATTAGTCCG : what is it?
2.93

Reported PBM binding z-score for GTACCAAGGTGAATAGGTCGATGATGAGTAGGCG : what is it?
0.499

Reported PBM binding z-score for CCGACTGGGGCAAAAGGTTACCATAAGCCAGCCC : what is it?
3.36

Reported PBM binding z-score for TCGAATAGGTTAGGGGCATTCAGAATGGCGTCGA : what is it?
0.807

Reported PBM binding z-score for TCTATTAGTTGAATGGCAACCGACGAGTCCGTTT : what is it?
1.04

Reported PBM binding z-score for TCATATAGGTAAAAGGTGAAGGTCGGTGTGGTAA : what is it?
1.85

====

Tested on: PPARg homodimer (NR concentration 180 nM)
Assay: PBM binding z-score (relative to random genomic background probes); higher = stronger binding; sequences stand for … in GC…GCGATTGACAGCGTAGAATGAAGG
Lab note: anything with PBM binding z-score at or over -0.02 counts as 1.0; the rest go in 0.0.

// below: answered sequences
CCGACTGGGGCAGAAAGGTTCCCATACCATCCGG; 0.0
TCAGAGAGGTGAAGGTAACTCAGGTACGCAGTCG; 1.0
CCTATTAGTTGACCATAAGCGCAACCGAAGCTCG; 1.0
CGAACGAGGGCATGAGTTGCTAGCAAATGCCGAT; 1.0

Hello, I need to know if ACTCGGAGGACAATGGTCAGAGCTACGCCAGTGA has measured PBM binding z-score not below -0.02. Thanks!
0.0

Hello, I need to know if TTACCAAGGTGAGCTGAGGTCGGTGATCCAACTC has measured PBM binding z-score not below -0.02. Thanks!
0.0

Hello, I need to know if CAAACTTGGTCAAAGGTCAAAGTCGAGCCAACCA has measured PBM binding z-score not below -0.02. Thanks!
1.0

Hello, I need to know if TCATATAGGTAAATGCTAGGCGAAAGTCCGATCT has measured PBM binding z-score not below -0.02. Thanks!
1.0

====

System: RARa:RXR (NR concentration 270 nM, RXRa partner concentration 90 nM)
Assay: PBM binding z-score (relative to random genomic background probes); higher = stronger binding; sequences stand for … in GC…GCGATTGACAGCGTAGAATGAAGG
measurement_type: PBM binding z-score

Answered examples (2):
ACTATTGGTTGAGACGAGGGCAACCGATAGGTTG; 1.1
CCAGCTAGGTCAATGGTCAGCTAAAGCAGCTCGC; 1.49

Kindly state the measured PBM binding z-score obtained for CGTCCAAGGTCAGCAGGTCAATGAAAGCGACGTG with RARa:RXR (NR concentration 270 nM, RXRa partner concentration 90 nM).
5.49

Kindly state the measured PBM binding z-score obtained for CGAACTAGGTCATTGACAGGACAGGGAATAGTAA with RARa:RXR (NR concentration 270 nM, RXRa partner concentration 90 nM).
2.22

Kindly state the measured PBM binding z-score obtained for ACTAGCAGGCCAAGGATCACTCAAGATTAGTCCG with RARa:RXR (NR concentration 270 nM, RXRa partner concentration 90 nM).
-0.293
